The reported measurements were obtained from PubChem BioAssay (NCI).

Test system: XF 498 CNS
assay_summary: NCI tumour cell line growth inhibition, 48 h
readout_kind: TGI

These recorded examples may help you get a feel for the data.
compound: O=C(/C=C/c1ccccc1F)c1ccc([N+](=O)[O-])cc1
TGI: 58.9 µM

compound: COC(=O)C1CC(C(=O)OC)c2nc3cc([N+](=O)[O-])ccc3nc21 (stereo not given)
TGI: > 100 µM

compound: CN1CCC(SC2Cc3cc(Cl)ccc3Sc3ccccc32)CC1 (stereo not given)
TGI: 30 µM

compound: N#CC1(Cc2ccccc2)CCCCN1C(=O)c1ccccc1 (stereo not given)
TGI: > 100 µM

Req: What value of measured TGI is listed for COc1ccc(C(=O)c2c(C(C(=O)c3ccc(OC)cc3)C(=O)c3ccc(OC)cc3)n(C(=O)c3ccc(OC)cc3)c3ccccc23)cc1 ?
Resp: > 100 µM

* * *

Tested on: NCI-H522 lung
Allowed answers: active, inactive

Req: Entry C/C(=N\NC(=O)c1ccc(C(C)(C)C)cc1)c1ccc(O)cc1O : call = ?
Resp: inactive

Req: For CCN(CC)c1ccc(C2=NN(C(C)=O)C(c3cc(OC)c(OC)c(OC)c3)C2)cc1 (stereo not drawn) , what call appears in the results of this test?
Resp: active

Req: Which outcome was assigned to COc1ccc2c(NCCCCCCCCNc3c4ccccc4nc4cc(OC)ccc34)c3ccccc3nc2c1 in this test?
Resp: active

* * *

Recorded TGI by entry
Tested on: HS 578T breast
assay_summary: NCI tumour cell line growth inhibition, 48 h
The response must be a number in µM with no trailing unit.

Example entries begin here.
molecule: CC(C)(C)OC(=O)NC(Cc1ccc(OCc2ccccc2)cc1)C(=O)NC(COCc1ccccc1)C(=O)Oc1c(Cl)c(Cl)c(Cl)c(Cl)c1Cl (centres undefined)
TGI (µM): 41.8
//
molecule: Cc1ccc(C(=Nc2ccccc2)N=P(c2ccccc2)(c2ccccc2)c2ccccc2)cc1
TGI (µM): 7.84
//
molecule: CCCCCCCCCCCCCCCCSC(=NCC)NCC
TGI (µM): 8.84

Consider the additional molecule presented here.
Req: Using the record for CC12OC(CC(O)C1O)n1c3ccccc3c3c4c(c5c6ccccc6n2c5c31)C(=O)N(CCN1CCCC1)C4=O (centres undefined) , report its TGI.
Resp: 13.8

* * *

Measured TGI by item
Test system: HL-60(TB) leukemia
assay_summary: NCI tumour cell line growth inhibition, 48 h

Some solved entries appear below for comparison.
molecule: O=C(CI)OCC(COC(=O)CI)OC(=O)CI
target_of_assay: HL-60(TB) leukemia
TGI: 4.19 µM

molecule: COc1ccc(NC(=O)CC(=O)NN)cc1
target_of_assay: HL-60(TB) leukemia
TGI: > 100 µM

molecule: Cc1ccccc1NC(=O)c1cc2cc(N=Nc3ccccc3C(=O)O)ccc2oc1=O
target_of_assay: HL-60(TB) leukemia
TGI: 55.6 µM

Req: Look up TGI for this molecule: CC(C)Oc1c(N(Cc2ccccc2)c2ccccc2C2SCCCS2)c(=O)c1=O
Resp: > 100 µM

Req: Look up TGI for this molecule: COP(=O)(CC(=O)C1OC(C)(C)OC1C(O)COCc1ccccc1)OC (stereo unspecified)
Resp: > 100 µM

Req: Item under review: Cc1ncc(-c2nnnn2-c2ccccc2)c(C(=O)O)n1 . Reported TGI?
Resp: > 100 µM
